- Tested on: anti-digitoxin antibody
- protocol.summary: Bioactive microarray binding profile, anti-digitoxin antibody
- Design: species or system rabbit
- condition.details: anti-digitoxin then labeled secondary antibody; replicate arrays
measured.quantity: mean SNR (signal-to-noise ratio at 635 nm)
Lab note: record just the number, no unit beside it.

The examples below pair each entry with its known result.
compound | observed
C[C@@H]1O[C@@H](O[C@H]2CC[C@]3(C=O)[C@H]4CC[C@]5(C)[C@@H](C6=CC(=O)OC6)CC[C@]5(O)[C@@H]4CC[C@]3(O)C2)[C@H](O)[C@H](O)[C@H]1O | 52.7
CC(=O)O[C@H]1C[C@H](O[C@H]2[C@@H](O)C[C@H](O[C@H]3[C@@H](O)C[C@H](O[C@H]4CC[C@@]5(C)[C@H](CC[C@@H]6[C@@H]5C[C@@H](O)[C@]5(C)[C@@H](C7=CC(=O)OC7)CC[C@]65O)C4)O[C@@H]3C)O[C@@H]2C)O[C@H](C)[C@H]1O[C@@H]1O[C@H](CO)[C@@H](O)[C@H](O)[C@H]1O [lanatoside C] | 24.0
C[C@]12CC[C@H](O)C[C@H]1CC[C@@H]1[C@@H]2CC[C@]2(C)[C@@H](C3=CC(=O)OC3)[C@@H](O)C[C@]12O | 62.5

What value of mean SNR (signal-to-noise ratio at 635 nm) has been reported for the following compound? `C[C@H]1O[C@@H](O[C@H]2[C@@H](O)C[C@H](O[C@H]3[C@@H](O)C[C@H](O[C@H]4CC[C@@]5(C)[C@H](CC[C@@H]6[C@@H]5CC[C@]5(C)[C@@H](C7=CC(=O)OC7)CC[C@]65O)C4)O[C@@H]3C)O[C@@H]2C)C[C@H](O)[C@@H]1O`
15.1
